Tested on: TRPC4 (mouse), co-expressed with 5HT1a in HEK293
protocol.summary: enhancement of serotonin-evoked TRPC4 response – cell-based, second counter screen, HEK293 TRPC4/5HT1a, Fluo-4, counter-screen for TRPC4 potentiator project, confirmation (AID 434979)
condition.parameters: Fluo-4 calcium flux, at 10 µM, serotonin added at its EC20 dose
Activity calls are given as the source filed them.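 The calls were made as follows: active = signal rise over 3 SD above mean of control wells given weak agonist, in both repeats and first screen; inactive = the rest.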
Your response should consist of one outcome taken from Y for active, N for inactive

{"columns": ["compound", "cat"],
 "data": [
  ["CCc1ccc(-c2nn(-c3ccccc3)cc2CSC(=N)N)cc1", "N"],
  ["COc1cccc(CN2CCNC(=O)C2CC(=O)N(C)CCc2ccccn2)c1OC (centres undefined)", "N"],
  ["CCOC(=O)c1c(C(F)(F)C(F)(F)C(F)(F)C(F)(F)F)n[nH]c1C", "N"]
]}

q: # lookup: test call for O=C(NCc1ccccc1)c1ccc(S(=O)(=O)Nc2cccc(C(F)(F)F)c2)cc1
a: Y

q: Now the same for Cc1ccc2nc(C)c3c(c2c1)N(c1ccc(F)cc1)CC3
a: N

q: Also Cc1ccc(CNC(=O)CSc2nc(=O)n3ccccc3n2)cc1 ?
a: N

q: Now consider COc1ccc(-c2nc(CSCC(=O)NC3CCN(Cc4ccccc4)CC3)c(C)o2)cc1OC .
a: N

q: Also check CCOC(=O)C1(CCOC)CCN(Cc2ccccc2-c2ccco2)CC1
a: N

q: Can you check CCCCc1nc(N2CCOCC2)c(C#N)c2c1CCCC2 next?
a: N

###

assay.system: Short transient receptor potential channel 4 (Mus musculus) (UniProt Q9QUQ5)
protocol.summary: calcium flux activators in TRPC4/5HT1a cells, counter-screen for TRPC4 activator project, cell-based, second counter screen, HEK293 TRPC4/5HT1a, Fluo-4 (AID 434977)
condition.parameters: Fluo-4 calcium flux, at 10 µM
Calls of active or inactive are those of the source.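 The calls were made as follows: active = calcium signal rise above buffer-control mean plus 5 SD in both duplicates, and also a hit in the primary screen; inactive = the rest.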
The categories you may choose from are Y for active, N for inactive

The examples below pair each entry with its known result.
{"columns": ["molecule", "assay.system", "cat"],
 "data": [
  ["C=CCNC(=S)N1CCN(C2CCCCC2)CC1", "Short transient receptor potential channel 4 (Mus musculus) (UniProt Q9QUQ5)", "N"],
  ["CC(C)=CCN1CCN(Cc2cccc3nonc23)CC1CCO (configuration not stated)", "Short transient receptor potential channel 4 (Mus musculus) (UniProt Q9QUQ5)", "N"],
  ["CCCOc1cccc(C(=O)NCCNC(=O)c2ccco2)c1", "Short transient receptor potential channel 4 (Mus musculus) (UniProt Q9QUQ5)", "N"],
  ["N=c1c(C(=O)NCc2ccc(F)cc2)cc2c(=O)n3ccccc3nc2n1Cc1ccco1", "Short transient receptor potential channel 4 (Mus musculus) (UniProt Q9QUQ5)", "N"],
  ["O=C(Nc1ccc(F)cc1)Nc1cc(S(=O)(=O)N2CCOCC2)ccc1N1CCCC1", "Short transient receptor potential channel 4 (Mus musculus) (UniProt Q9QUQ5)", "N"],
  ["COc1ccc(NS(=O)(=O)c2csc(C(N)=O)c2)cc1OC", "Short transient receptor potential channel 4 (Mus musculus) (UniProt Q9QUQ5)", "N"],
  ["Cc1ccc(/C=N/NC(=S)NC2CCCCC2)o1", "Short transient receptor potential channel 4 (Mus musculus) (UniProt Q9QUQ5)", "N"],
  ["COC(=O)NCC(c1ccc2c(c1)OCO2)N1CCN(c2ccccc2)CC1 (configuration not stated)", "Short transient receptor potential channel 4 (Mus musculus) (UniProt Q9QUQ5)", "N"]
]}

q: Which result was noted for this molecule in the test: O=C(Cn1nc(-c2ccccc2)ccc1=O)NCCN1CCN(Cc2ccccc2)CC1
a: N

q: Also O=C(CN1CCCCC1)N=Nc1c(O)[nH]c2ccccc12 ?
a: N

q: Would you kindly repeat that for COc1cc(CNCCCN2CCOCC2)cc(Br)c1OCc1ccc(Cl)cc1 ?
a: N
